System: T47D breast cancer cells
procedure.summary: Inhibitory activity against tumor cells, CellTiter-Glo: T47D
Assay type: cell-based
settings: Homo sapiens
Experimental: MCF7 (ATCC #HTB-22) and T47D (ATCC #HTB-133) breast cancer cells and PANC-1 (ATCC #CRL-1469) pancreatic cancer cells were purchased from ATCC. […] Palbociclib-resistant cells were constructed on MCF7 parent cells, designated MCF7 Palbo-R, and the culture conditions were consistent with those of the parent cells. […] Readings were taken using an Envision multimode microplate reader. Data were processed using GraphPad Prism 8, and IC50 was calculated. […]
measurement.name: IC50 (nM)

# count of solved cases: 2
compound	assay.system	IC50, nM
C[C@@H]1Cc2cnc(NCc3ccn(C)n3)nc2CN1C(=O)N[C@H](CN(C)C)c1ccccc1 [Example 2]	T47D breast cancer cells	31
[2H]C([2H])([2H])N(C[C@@H](NC(=O)N1Cc2nc(NCc3ccn(C)n3)ncc2C[C@H]1C)c1ccccc1)C([2H])([2H])[2H] [Example 12]	T47D breast cancer cells	41.5

1 = [2H]C([2H])([2H])N(C[C@@H](NC(=O)N1Cc2nc(N[C@@H](C)c3ccccn3)ncc2C[C@H]1C)c1ccccc1)C([2H])([2H])[2H] [Example 19]
2 = C[C@H](Nc1ncc2c(n1)CN(C(=O)N[C@H](CN(C)C)c1ccccc1)[C@H](C)C2)c1ccccn1 [Example 6]
Exercise: Hi there, can you help? I need to know whether 1 or 2 has lower measured IC50. Answer format: the label of the selected item.
Solution: 1

----------
Test system: OVCAR3 ovarian cancer cells
procedure.summary: Inhibitory activity against ovarian cancer cells (OVCAR3), CellTiter-Glo viability
Assay type: cell-based
settings: Homo sapiens, OVCAR-3, 120 h, OVCAR3, 5 days treatment
measurement.name: IC50 (nM)

# count of solved cases: 2
compound	assay.system	recorded.number
C[C@@H]1Cc2cnc(NCc3ccn(C)n3)nc2CN1C(=O)N[C@H](CN(C)C)c1cccc(Cl)c1 [Example 13]	OVCAR3 ovarian cancer cells	21.7
[2H]C([2H])([2H])N(C[C@@H](NC(=O)N1Cc2nc(NCc3ccn(C)n3)ncc2C[C@H]1C)c1ccccc1)C([2H])([2H])[2H] [Example 12]	OVCAR3 ovarian cancer cells	33.9

1 = C[C@@H]1Cc2cnc(Nc3cnn(CC4CC4)c3)nc2CN1C(=O)N[C@H](CN(C)C)c1ccccc1 [Example 16]
2 = C[C@@H]1Cc2cnc(Nc3cnn(C)c3)nc2CN1C(=O)N[C@H](CN(C)C)c1ccccc1 [Example 17]
Exercise: Hi there, can you help? I need to know whether 1 or 2 has lower measured IC50. Answer format: the label of the selected item.
Solution: 1
(1: 9.99 nM, 2: 22.5 nM)
